# Test system: HEK-293T
# procedure.summary: Multiplex assay against HEK293T
# Type: toxicity, cell-based
# run.parameters: human, 48 h, 1 µM, compound concentration 1 uM, replicate 1
measured.endpoint: Population Healthy Nuclei (%)
Quick reminder: number only, in %, skip the unit.

See these solved cases before continuing.
| compound | result.unit | Population Healthy Nuclei (%) |
| --- | --- | --- |
| O=C(NCC(=O)N1CC[C@H](N[C@H]2CC[C@@](O)(c3ccc(-c4ncccn4)cn3)CC2)C1)c1cccc(C(F)(F)F)c1 | % | 78 |
| CCNC1(C(N)=O)CCN(c2ncnc3c2nc(-c2ccccc2Cl)n3-c2ccc(Cl)cc2)CC1 | % | 78 |
| N[C@@]1(C(=O)O)CO[C@H]2[C@H](C(=O)O)[C@H]21 | % | 79 |

**Q:** // query Population Healthy Nuclei (%) value for entry COc1ccc2c(c1)C(C(=O)N(Cc1ccc(N(C)C)cc1)c1ccc(C(C)C)cc1)CCC2.Cl (stereo not given)
**A:** 80

----------
# System: U2OS
# procedure.summary: Multiplex assay against U2OS
# Assay type: toxicity, cell-based
# run.parameters: human, 24 h, 1 µM, compound concentration 1 uM, replicate 1
measured.endpoint: Population Normal (%)
Quick reminder: number only, in %, skip the unit.

| compound | result.unit | Population Normal (%) |
| --- | --- | --- |
| CN1CCN2c3ncccc3Cc3ccccc3C2C1 (stereo not drawn) [MIRTAZAPINE] | % | 97 |

**Q:** // query Population Normal (%) value for entry `Cc1nc2ccc(Oc3ccc(F)cc3)cc2c(=O)n1C[C@H]1CCCN(C(C)C)C1.Cl`
**A:** 95

----------
# Tested on: Fibroblast
# procedure.summary: Multiplex assay against human fibroblast
# Format: toxicity, cell-based
# run.parameters: 12 h, 1 µM, compound concentration 1 uM, replicate 1
measured.endpoint: Population Fragmented Nuclei (%)
Quick reminder: number only, in %, skip the unit.

See these solved cases before continuing.
| molecule | Population Fragmented Nuclei (%) |
| --- | --- |
| C[C@H](NC(=O)c1c(C(F)F)nn(C)c1Oc1cccc(C(F)(F)F)c1)c1ccc(C(=O)O)cc1 | 29 |
| CC(C)(C)c1ccc(S(=O)(=O)Nc2ccc(Cl)cc2C(=O)c2cc[n+]([O-])cc2)cc1 | 19 |
| COc1cc(C(=O)N(CCCc2ccccc2)Cc2ccc(CC(=O)O)cc2)cc(OC)c1C | 14 |
| COc1ccc2c(c1)C(C(=O)N(Cc1ccc(N(C)C)cc1)c1ccc(C(C)C)cc1)CCC2.Cl (stereo not drawn) | 15 |
| CN1CCN(c2nc3cc(C(F)(F)F)ccc3n3cccc23)CC1.O=C(O)/C=C\C(=O)O.O=C(O)/C=C\C(=O)O | 18 |

**Q:** // query Population Fragmented Nuclei (%) value for entry O=S(=O)(c1ccccc1)c1cnc2c(N3CCNCC3)cccc2c1 [INTEPIRDINE]
**A:** 23

**Q:** // query Population Fragmented Nuclei (%) value for entry `CSCC[C@H](NC=O)C(=O)N[C@@H](CC(C)C)C(=O)N[C@@H](Cc1ccccc1)C(=O)O`
**A:** 18

**Q:** // query Population Fragmented Nuclei (%) value for entry `CC(=O)NCCc1c(Cc2ccccc2)[nH]c2ccccc12`
**A:** 15

----------
# Test system: U2OS
# procedure.summary: Multiplex assay against U2OS
# Assay type: toxicity, cell-based
# run.parameters: human, 24 h, 1 µM, compound concentration 1 uM, replicate 2
measured.endpoint: Population Mitotic Cells (%)
Quick reminder: number only, in %, skip the unit.

See these solved cases before continuing.
| compound | study.target | result.unit | Population Mitotic Cells (%) |
| --- | --- | --- | --- |
| Cc1ccc(C(C)(O)c2nc3ccccc3s2)c(C)c1 (configuration not stated) | U2OS | % | 10 |
| CC[C@H]1OC(=O)[C@H](C)[C@@H](O[C@H]2C[C@@](C)(OC)[C@@H](O)[C@H](C)O2)[C@H](C)[C@@H](O[C@@H]2O[C@H](C)C[C@H](N(C)C)[C@H]2O)[C@@]2(C)CC(C)=C(O2)[C@H](C)[C@@H](O)[C@]1(C)O | U2OS | % | 27 |
| CN(C)c1ccnc2sc3c(=O)n(N4CCCCCC4)cnc3c12 | U2OS | % | 27 |
| COc1cc(NC(=O)CCN2CCC(OC(=O)Nc3ccccc3-c3ccccc3)CC2)c(Cl)cc1CNC[C@H](O)c1ccc(O)c2[nH]c(=O)ccc12 | U2OS | % | 0 |
| Cc1ccc(-c2ccc(F)cc2COc2ccc(CCC(=O)O)cc2)cc1 | U2OS | % | 0 |

**Q:** // query Population Mitotic Cells (%) value for entry `N#Cc1c(N)nc(SCc2csc(-c3ccc(Cl)cc3)n2)c(C#N)c1-c1ccc(OCCO)cc1`
**A:** 38

**Q:** // query Population Mitotic Cells (%) value for entry CCCN1CCC[C@@H]2Cc3n[nH]cc3C[C@H]21.Cl [QUINPIROLE HYDROCHLORIDE]
**A:** 22

**Q:** // query Population Mitotic Cells (%) value for entry `CN(C)CCCc1cc(C(=O)Nc2ccc(-c3ccncc3)cc2)ccc1O.Cl.Cl`
**A:** 5

**Q:** // query Population Mitotic Cells (%) value for entry `C[C@H](NC(=O)c1c(C(F)F)nn(C)c1Oc1cccc(C(F)(F)F)c1)c1ccc(C(=O)O)cc1`
**A:** 5

**Q:** // query Population Mitotic Cells (%) value for entry `O=C(NCCO)c1cccc(-c2cc(Nc3ccc(OC(F)(F)F)cc3)ncn2)c1`
**A:** 13

**Q:** // query Population Mitotic Cells (%) value for entry Cc1ccccc1C(=O)Nc1ccc(C(=O)N2CCCC(N(C)C)c3ccccc32)cc1.Cl (configuration not stated)
**A:** 33

**Q:** // query Population Mitotic Cells (%) value for entry CN1CCN2c3ncccc3Cc3ccccc3C2C1 (configuration not stated)
**A:** 0

**Q:** // query Population Mitotic Cells (%) value for entry `CN1CCN(c2nc3cc(C(F)(F)F)ccc3n3cccc23)CC1.O=C(O)/C=C\C(=O)O.O=C(O)/C=C\C(=O)O`
**A:** 7

**Q:** // query Population Mitotic Cells (%) value for entry `Cc1ccc(/C(=C\CN2CCCC2)c2ccccn2)cc1`
**A:** 18

**Q:** // query Population Mitotic Cells (%) value for entry `CCCn1c(=O)c2[nH]c(C3CCCC3)nc2n(CCC)c1=O`
**A:** 12

**Q:** // query Population Mitotic Cells (%) value for entry `O=C(O)Cc1ccccc1Nc1c(Cl)cccc1Cl`
**A:** 12

**Q:** // query Population Mitotic Cells (%) value for entry `N[C@@]1(C(=O)O)CO[C@H]2[C@H](C(=O)O)[C@H]21`
**A:** 0

----------
# Test system: U2OS
# procedure.summary: Multiplex assay against U2OS
# Assay type: toxicity, cell-based
# run.parameters: human, 12 h, 1 µM, compound concentration 1 uM, replicate 1
Label scheme for Population Apoptotic (%): lower than 80% is criterion not met, 80% and above is criterion met.

| compound | group |
| --- | --- |
| O=C(O)c1cc2ccccc2c(Cc2c(O)c(C(=O)O)cc3ccccc23)c1O [PAMOIC ACID] | criterion met |
| CN1CCN(c2nc3cc(C(F)(F)F)ccc3n3cccc23)CC1.O=C(O)/C=C\C(=O)O.O=C(O)/C=C\C(=O)O | criterion not met |
| CCNC1(C(N)=O)CCN(c2ncnc3c2nc(-c2ccccc2Cl)n3-c2ccc(Cl)cc2)CC1 [OTENABANT] | criterion not met |
| Cc1ccc(/C(=C\CN2CCCC2)c2ccccn2)cc1 [TRIPROLIDINE] | criterion met |
| O=C(O)Cc1ccccc1Nc1c(Cl)cccc1Cl [DICLOFENAC] | criterion met |
| CSc1ccccc1N1CCN(CCCCCC(=O)NC2CCCc3ccccc32)CC1.Cl (configuration not stated) | criterion not met |

**Q:** Quick check, Population Apoptotic (%) >= 80%? `O=C(NCCO)c1cccc(-c2cc(Nc3ccc(OC(F)(F)F)cc3)ncn2)c1`
**A:** criterion not met

**Q:** Quick check, Population Apoptotic (%) >= 80%? COc1ccc2c(c1)C(C(=O)N(Cc1ccc(N(C)C)cc1)c1ccc(C(C)C)cc1)CCC2.Cl (configuration not stated)
**A:** criterion not met

**Q:** Quick check, Population Apoptotic (%) >= 80%? `COc1cc(C(=O)N(CCCc2ccccc2)Cc2ccc(CC(=O)O)cc2)cc(OC)c1C`
**A:** criterion met

**Q:** Quick check, Population Apoptotic (%) >= 80%? Cc1ccc(C(C)(O)c2nc3ccccc3s2)c(C)c1 (configuration not stated)
**A:** criterion met

**Q:** Quick check, Population Apoptotic (%) >= 80%? c1cc(OCCCN2CCCCC2)ccc1CN1CCCCC1 [JNJ-5207852]
**A:** criterion not met

**Q:** Quick check, Population Apoptotic (%) >= 80%? CNC[C@H](O)c1ccc(O)c(O)c1 [EPINEPHRINE]
**A:** criterion met

**Q:** Quick check, Population Apoptotic (%) >= 80%? `Cc1ccc(-c2ccc(F)cc2COc2ccc(CCC(=O)O)cc2)cc1`
**A:** criterion not met

**Q:** Quick check, Population Apoptotic (%) >= 80%? CC(=O)NCCc1c(Cc2ccccc2)[nH]c2ccccc12 [LUZINDOLE]
**A:** criterion not met

**Q:** Quick check, Population Apoptotic (%) >= 80%? `Oc1c(CN2CCN(c3ccccn3)CC2)cc(Cl)c2cccnc12`
**A:** criterion met

**Q:** Quick check, Population Apoptotic (%) >= 80%? N[C@@]1(C(=O)O)CO[C@H]2[C@H](C(=O)O)[C@H]21 [LY-379268]
**A:** criterion met

**Q:** Quick check, Population Apoptotic (%) >= 80%? Cc1ccccc1C(=O)Nc1ccc(C(=O)N2CCCC(N(C)C)c3ccccc32)cc1.Cl (configuration not stated)
**A:** criterion met

**Q:** Quick check, Population Apoptotic (%) >= 80%? `Cc1nc2ccc(Oc3ccc(F)cc3)cc2c(=O)n1C[C@H]1CCCN(C(C)C)C1.Cl`
**A:** criterion met

**Q:** Quick check, Population Apoptotic (%) >= 80%? CCCC(CCC)C(=O)O [VALPROIC ACID]
**A:** criterion not met

**Q:** Quick check, Population Apoptotic (%) >= 80%? `CCOc1c2c(c(OCC)c3ncccc13)CN(c1ccc(CS(=O)(=O)NC(=O)Cc3ccccc3OC)cc1C)C2=O`
**A:** criterion not met

**Q:** Quick check, Population Apoptotic (%) >= 80%? `CSCC[C@H](NC=O)C(=O)N[C@@H](CC(C)C)C(=O)N[C@@H](Cc1ccccc1)C(=O)O`
**A:** criterion not met

**Q:** Quick check, Population Apoptotic (%) >= 80%? C[C@@H]1C[C@H]2[C@@H]3CCC4=CC(=O)C=C[C@]4(C)[C@@]3(F)[C@@H](O)C[C@]2(C)[C@@]1(O)C(=O)CO [DEXAMETHASONE]
**A:** criterion not met

**Q:** Quick check, Population Apoptotic (%) >= 80%? CCCN1CCC[C@@H]2Cc3n[nH]cc3C[C@H]21.Cl [QUINPIROLE HYDROCHLORIDE]
**A:** criterion not met
